Examples of compounds with documented Inhibition follow.
Tested on: Plasmodium falciparum
Test Summary: GSK_TCMDC: Inhibition of Plasmodium falciparum Dd2 in whole red blood cells, using parasite LDH activity as an index of growth. Test compounds present at 2uM
Type: functional
# output: numeric value plus its unit

Known results for compounds:
INSERT INTO assay_data (compound, result) VALUES
  ('O=C(NCC1CCN(CC2CCCCC2)C1)c1cc(-c2cccc(C(F)(F)F)c2)cs1.O=C(O)C(F)(F)F (centres undefined)', '21%'),
  ('CCNc1cc(C(=O)N[C@@H](Cc2ccccc2)[C@H](O)CN[C@H]2CCc3ccccc32)cc(N2CCCC2=O)c1', '99%'),
  ('COc1cc(NC2=NS(=O)(=O)c3cc(Cl)ccc3N2C)cc(OC)c1OC.O=C(O)C(F)(F)F', '100%'),
  ('COCC(C)n1c(SCC(=O)Nc2cc(C(F)(F)F)ccc2Cl)nc2ccccc2c1=O (centres undefined)', '96%'),
  ('O=C(N[C@H]1CCN(Cc2ccc(OCCN3CCCC3)c3ccccc23)C1)c1ccc(Cl)c(Cl)c1.O=C(O)C(F)(F)F', '51%');

input: Supply measured Inhibition of CCc1ccc(S(=O)(=O)Nc2ccc(CCN(C)C3CCN(C)CC3)cc2)cc1 in your reply.
output: 9%

input: Using known records, supply Inhibition for COc1cc2nc(NCCC(C)C)n3nc(-c4ccccc4)nc3c2cc1OC
output: 97%
